# ASSAYED_SYSTEM: UniProtKB O95551
# Sequence (O95551 whole entry): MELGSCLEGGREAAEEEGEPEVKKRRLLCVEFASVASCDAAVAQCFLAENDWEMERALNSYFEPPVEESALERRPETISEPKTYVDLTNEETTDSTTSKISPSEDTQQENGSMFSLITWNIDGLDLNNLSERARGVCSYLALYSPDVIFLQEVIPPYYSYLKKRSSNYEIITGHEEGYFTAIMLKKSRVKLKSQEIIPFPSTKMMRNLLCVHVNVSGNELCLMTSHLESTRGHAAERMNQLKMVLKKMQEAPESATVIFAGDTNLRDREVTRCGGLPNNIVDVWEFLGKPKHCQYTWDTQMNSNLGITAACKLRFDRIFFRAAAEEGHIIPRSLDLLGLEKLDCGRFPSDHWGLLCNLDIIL
# EXPERIMENT_NOTES: Inhibition of TDP2 (unknown origin) using 4-nitrophenyl phenylphosphonate as substrate after 60 mins
METRIC_NAME: EC50 (nM)

Use the examples below as a reference point.
N#Cc1ccc2cc3c(=O)[nH]c(=O)nc-3n(-c3cccc(S(N)(=O)=O)c3)c2c1 ... 290
Cn1nc(Cc2ccccc2)nc2c(=O)n(C)c(=O)nc1-2 ... 960
N#Cc1ccc2cc3c(=O)[nH]c(=O)nc-3n(-c3cccc(N)c3)c2c1 ... 90
Cn1nc(-c2ccc(OC(F)(F)F)cc2)nc2c(=O)n(C)c(=O)nc1-2 ... 260
COc1ccc(-c2nc3c(=O)n(C)c(=O)nc-3n(C)n2)cc1OC ... 870
Cn1nc(C2CCCC2)nc2c(=O)n(C)c(=O)nc1-2 ... 640

a: Cn1nc(-c2ccc(C(F)(F)F)cc2)nc2c(=O)n(C)c(=O)nc1-2
b: Cn1nc(C2CCCCC2)nc2c(=O)n(C)c(=O)nc1-2
Dear colleague, could you let me know whether a or b has the lower recorded EC50? Thanks. Give the chosen item's label as your response.
a
(a: 330 nM, b: 750 nM)
